Test system: FAMPAC
Assay comment: cells
Set-up: ATPlite luminescence viability of PDAC cell lines, 11-dose single-agent curves, 4-parameter fit
Condition info: 72 h, read-out: EC50 [nM]
Each record's class is read off its EC50 using these ranges: zone 1: < 700 nM; zone 2: ≥ 700 nM and < 3000 nM; zone 3: ≥ 3000 nM

# example entries with known answers
> print(dat)
                                    compound  assayed.system  class.assignment
 1  CN1CCN(c2ccc3nc(-c4c(N)c5c(F)cccc5[nH]c4=O)[nH]c3c2)CC1 [Dovitinib]          FAMPAC            zone 2
 2  CCN1CCN(Cc2ccc(Nc3ncc(F)c(-c4cc(F)c5nc(C)n(C(C)C)c5c4)n3)nc2)CC1 [Abemaciclib]          FAMPAC            zone 3
 3  CC(C)n1nc(-c2ccc3oc(N)nc3c2)c2c(N)ncnc21 [Sapanisertib]          FAMPAC            zone 1
 4  COc1cc2ncnc(Nc3ccc(F)c(Cl)c3)c2cc1NC(=O)/C=C/CN1CCCCC1 [Dacomitinib]          FAMPAC            zone 3
 5  CC(C)(C)c1nc(-c2cccc(NS(=O)(=O)c3c(F)cccc3F)c2F)c(-c2ccnc(N)n2)s1 [Dabrafenib]          FAMPAC            zone 1
 6  C1=N/C2=N/c3ccc(OCCN4CCCC4)c(c3)COC/C=C/COCc3cccc(c3)C(=C1)N2 [Pacritinib]          FAMPAC            zone 2
 7  CO[C@]1(C(=O)N[C@@H](C)c2ccc(-n3cc(F)cn3)nc2)CC[C@H](c2nc(C)cc(Nc3cc(C)[nH]n3)n2)CC1 [Pralsetinib]          FAMPAC            zone 3
 8  COc1c(OCCCN2CCOCC2)ccc2c1N=C(NC(=O)c1cnc(N)nc1)N1CCN=C21 [Copanlisib]          FAMPAC            zone 2
 9  O=C1CCc2c(Oc3ccc4c(c3)[C@@H]3[C@H](O4)[C@H]3c3nc4cc(C(F)(F)F)ccc4[nH]3)ccnc2N1 [Lifirafenib]          FAMPAC            zone 2
10  COc1cc(Nc2ncc(F)c(Nc3ccc4c(n3)N(COP(=O)(O)O)C(=O)C(C)(C)O4)n2)cc(OC)c1OC [Fostamatinib]          FAMPAC            zone 3

# input Hello team, could you let me know which band the following compound falls into: C=CC(=O)Nc1cc(Nc2nccc(-c3cn(C)c4ccccc34)n2)c(OC)cc1N(C)CCN(C)C [Osimertinib]
# output zone 3

# input Which category does the recorded EC50 put C[C@@H]1CN(C(=O)c2ccc(NC(=O)c3cc(O[C@H](C)c4c(Cl)ccc(F)c4Cl)c(N)nn3)cc2)C[C@H](C)N1 [Ensartinib] in?
# output zone 3

# input Would you mind sorting CC(=O)c1cc2c(o1)C(=O)c1ccccc1C2=O [Napabucasin] into the appropriate category?
# output zone 1

# input Category of CC1(C)CC=C(c2nc(C3CC(C)(C)OC(C)(C)C3)ccc2NC(=O)c2nc(C#N)c[nH]2)CC1 [Edicotinib] :
# output zone 2

# input Band assignment needed for C=CC(=O)Nc1cccc(Oc2nc(Nc3ccc(N4CCN(C)CC4)cc3)nc3ccsc23)c1 [Olmutinib] please.
# output zone 3
